# Test system: OVCAR-8 ovarian
Possible outcomes: T for active, F for inactive

> print(dat)
                                    molecule  measurement.target  group
 1  COc1ccc(Nc2cc(C)nc(N3CCN(c4ccnc5cc(Cl)ccc45)CC3)n2)cc1     OVCAR-8 ovarian      F
 2           Oc1ccc(Cl)cc1CNc1nc2ccccc2[nH]1     OVCAR-8 ovarian      F
 3  COc1cc(/C=C/C(=O)c2cccnc2Nc2ccc(F)cc2)cc(OC)c1OC     OVCAR-8 ovarian      F
 4  COc1ccc(C2=CC(c3ccc(OC)c(OC)c3)c3c(c4ccccc4oc3=O)O2)cc1OC (configuration not stated)     OVCAR-8 ovarian      F
 5  N#Cc1cc(S(=O)(=O)Nc2nc3ccccc3s2)c(SCc2ccccc2)cc1Cl     OVCAR-8 ovarian      F
 6  CO[C@H]1CC(c2ccc[nH]2)=N[C@]12O[C@@H](C)C[C@@H]1CCCCCCCc3ccc([nH]3)[C@H]12     OVCAR-8 ovarian      F
 7  CC(=O)Oc1ccc(C(c2ccc(OC(C)=O)cc2)c2ccccn2)cc1     OVCAR-8 ovarian      F
 8  Cc1c(Sc2ccccc2)[n+](=O)c2cc(Cl)c(Cl)cc2n1[O-]     OVCAR-8 ovarian      F
 9  CCN(CC)CCOc1ccc(C(=O)/C=C\c2ccc(Cl)cc2Cl)cc1     OVCAR-8 ovarian      F
10  Cc1nc(Nc2nc3ccccc3o2)nc(-c2cccc([N+](=O)[O-])c2)c1C(=O)Nc1ccc(F)c(Cl)c1     OVCAR-8 ovarian      F
11  Clc1nc(Cl)c2ncn(Cc3ccc(Cn4cnc5c(Cl)nc(Cl)nc54)cc3)c2n1     OVCAR-8 ovarian      F
12  CC(C)COC(=O)c1ccc2[nH]c(O)c(C=Nc3ccc(S(N)(=O)=O)cc3)c2c1     OVCAR-8 ovarian      F
13  Cc1ccc(-c2nc(N3CCCNCC3)c3oc(-c4ccc(C)cc4)nc3n2)cc1     OVCAR-8 ovarian      F
14     c1ccc(CNc2nc(Nc3ccccc3)nc3ccccc23)cc1     OVCAR-8 ovarian      F
15  COc1ccc(-c2nn(-c3cccc(NC(=O)c4ccc(N5CCOCC5)c(C(F)(F)F)c4)c3)cc2-c2ccncc2)cc1Cl     OVCAR-8 ovarian      F
16  Nc1nc(N)c2nc(CNc3ccc(C(=O)NC(CCCCNC(=O)c4ccccc4C(=O)O)C(=O)O)cc3)cnc2n1 (configuration not stated)     OVCAR-8 ovarian      T
17  COc1ccc2nc(NC(=O)c3cccnc3Nc3cc(OC)c(OC)c(OC)c3)sc2c1     OVCAR-8 ovarian      F
